target: T1, human NKp46 (full length, on cells) (human, UniProt O76036 22-304); experiment: flow cytometry on human NKp46-CHOK1 cells
T1 construct: also called human NKp46-CHOK1
T1 sequence (O76036 22-304 Q82K): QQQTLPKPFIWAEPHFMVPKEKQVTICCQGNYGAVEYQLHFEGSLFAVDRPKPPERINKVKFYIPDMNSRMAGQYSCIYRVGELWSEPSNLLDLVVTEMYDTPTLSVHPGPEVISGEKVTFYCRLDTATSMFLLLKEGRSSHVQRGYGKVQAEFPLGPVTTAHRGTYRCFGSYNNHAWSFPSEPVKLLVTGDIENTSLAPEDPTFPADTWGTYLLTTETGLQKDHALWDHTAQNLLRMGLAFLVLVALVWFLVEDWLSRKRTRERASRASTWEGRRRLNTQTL
measured-parameter: pEC50
Answers are plain numbers, as −log10 of the molar value.

binder="H1-PC11 humanized antibody (antibody, human IgG1, V domains shown, not shown: constant region of human IgG1) VH: EVQLVESGGGLVQPGGSLRLSCAASPYSANSFSMAWFRQAPGKGLEGVACIQAESGSTNVAPSVKGRFTISQDNSKNTLYLQMNSLRAEDTAVYYCAAFKRNVGGCELRPEHWRFWGQGTLVTVSS" endpoint_result=9.41
binder="H3-PA31 humanized antibody (antibody, human IgG1, V domains shown, not shown: constant region of human IgG1) VH: EVQLVESGGGLVQPGGSLRLSCAVSGRTFSRLPMGWFRQAPGKGREFVAAISWSSSTTYYADSVKGRFTISRDNSKNTAYLQMNSLRAEDTAVYYCAAVGGSLDYSATVVYTAARAYADWGQGTLVTVSS" endpoint_result=9.83
binder="H2-PC11 humanized antibody (antibody, human IgG1, V domains shown, not shown: constant region of human IgG1) VH: EVQLVESGGGLVQPGGSLRLSCAPSPYSANSFSMAWFRQAPGKGLEGIACIQAESGSTNVAPSVKGRFTISQDNSKNTLYLQMNSLRAEDTAVYYCAAFKRNVGGCELRPEHWRFWGQGTLVTVSS" endpoint_result=9.44
binder="H4-PA45 humanized antibody (antibody, V domains shown, not shown: constant region of human IgG1) VH: EVQLVESGGGLVQPGGSLRLSCAASGRTFSRLPMAWFRQAPGKDREFVAAISWSGGSTYYADSMKGRFTISRDNSKNTAYLQMNSLRAEDTAVYYCAAVGDSAPYSATIVYTDARAYAYWGQGTLVTVSS" endpoint_result=9.69
binder="H1-PA27 humanized antibody (antibody, human IgG1, V domains shown, also called hPA27; not shown: constant region of human IgG1) VH: QVQLVESGGGVVQPGRSLRLSCAASGRTESWYRMGWVRQAPGKGLEWVARISGDTNIKYYAGSVKGRFTISRDNSKNTLYLQMSSLRAEDTAVYYCAADRTGATWDYWGQGTLVTVSS" endpoint_result=9.60
binder="H4-PA27 humanized antibody (antibody, human IgG1, V domains shown, not shown: constant region of human IgG1) VH: DVQLVESGGGVVQPGRSLRLSCAASGRTESWYRMGWFRQAPGKGREVVARISGDTNIKYYAGSVKGRFTISRDNSKNTLYLQMSSLRAEDTAVYYCAADRTGATWDYWGQGTLVTVSS" endpoint_result=9.84
binder="H3-PC11 humanized antibody (antibody, human IgG1, V domains shown, not shown: constant region of human IgG1) VH: EVQLVESGGGLVQPGGSLRLSCAASPYSANSFSMAWFRQAPGKGREGVACIQAESGSTNVAPSVKGRFTISQDNSKNTLYLQMNSLRAEDTAVYYCAAFKRNVGGCELRPEHWRFWGQGTLVTVSS" endpoint_result=9.48

Consider now this further binder.
Measured pEC50 of H4-PC11 humanized antibody (antibody, human IgG1, V domains shown, not shown: constant region of human IgG1) VH: EVQLVESGGGLVQPGGSLRLSCAPSPYSANSFSMAWFRQAPGKGREGIACIQAESGSTNVAPSVKGRFTISQDNSKNTLYLQMNSLRAEDTAVYYCAAFKRNVGGCELRPEHWRFWGQGTLVTVSS : 9.52
